Where do these numbers come from? They come from paper PMC10009752.

# Tested on: 5′-biotinylated dsDNA (DNA, duplex) TGTAATCGTAGGTTGGTCCCATCACCCACC/GGTGGGTGATGGGACCAACCTACGATTACA
# assay_details: resonant mirror optical biosensor kinetics (IAsys plus)
# cond: 138 mM NaCl, 2.7 mM KCl; PBS (10 mM Na2HPO4), pH 7.4, 37 °C; monoexponential fit
readout_label: KD (µM)

Would you please look over these solved cases?
[
  {
    "chemical_structure": "Cc1nn(-c2ccccc2)c([O-])c1C(=O)c1ccccc1.Cc1nn(-c2ccccc2)c([O-])c1C(=O)c1ccccc1.Cc1nn(-c2ccccc2)c([O-])c1C(=O)c1ccccc1.[Ga+3]",
    "reading_unit": "µM",
    "KD": 0.76
  },
  {
    "chemical_structure": "Cc1nn(-c2ccccc2)c([O-])c1C(=O)c1ccco1.Cc1nn(-c2ccccc2)c([O-])c1C(=O)c1ccco1.Cc1nn(-c2ccccc2)c([O-])c1C(=O)c1ccco1.[Ga+3]",
    "reading_unit": "µM",
    "KD": 3.63
  },
  {
    "chemical_structure": "COc1ccc(C(=O)c2c(C)nn(-c3ccccc3)c2[O-])cc1.COc1ccc(C(=O)c2c(C)nn(-c3ccccc3)c2[O-])cc1.COc1ccc(C(=O)c2c(C)nn(-c3ccccc3)c2[O-])cc1.[Ga+3]",
    "reading_unit": "µM",
    "KD": 3.34
  }
]

[I] Cc1nn(-c2ccccc2)c([O-])c1C(=O)c1ccc(C(C)(C)C)cc1.Cc1nn(-c2ccccc2)c([O-])c1C(=O)c1ccc(C(C)(C)C)cc1.Cc1nn(-c2ccccc2)c([O-])c1C(=O)c1ccc(C(C)(C)C)cc1.[Ga+3]
[II] Cc1nn(-c2ccccc2)c([O-])c1C(=O)c1cccs1.Cc1nn(-c2ccccc2)c([O-])c1C(=O)c1cccs1.Cc1nn(-c2ccccc2)c([O-])c1C(=O)c1cccs1.[Ga+3]
Of I and II , whose reported KD is numerically smaller? Refer to your chosen item by its label in the answer.
II
(II: 2.24 µM, I: 3.27 µM)
